# Target Or System: GRASP, Q7Z6J2
# Sequence (Q7Z6J2 96-193): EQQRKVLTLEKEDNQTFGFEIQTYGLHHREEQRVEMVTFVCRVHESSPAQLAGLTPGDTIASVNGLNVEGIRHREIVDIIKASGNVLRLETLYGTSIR
# Protocol Notes: holdup assay
# Parameters: key: below the threshold = too weak to quantify, mostly under pKd 3.1 to 4
# Conditions: plain residues with an end cap or a label only (N-terminal biotin on a linker: ttds)
Measured Quantity: pKd

Use these answered entries as a reference point.
GARVSKETPL [MAPK12, P53778] :: 3.66
PSRDRKETSI [RALBP1, Q15311] :: below the threshold
KQVVPFSSSV [GDA, Q9Y2T3] :: 3.86
SHSSKGETAV [FZD7, O75084] :: 3.45
PPRQRSETQV [HPV82-E6, Q9IR59] :: below the threshold
SGGKRKETLV [NET1, Q7Z628] :: below the threshold

input: Can you share its pKd? I mean this binder: SRSRRRETAL [HPV33-E6, P06427]
output: 3.49

input: Can you share its pKd? I mean this binder: KLVIKTETTV [RASSF6, Q6ZTQ3]
output: 3.51
